system: A549; experiment: Cytotoxicity against human A549 cells by SRB assay; format: functional
Recorded GI50 by entry
Quick note: give the figure in µM, leave out the unit.

Examples with answers:
COC1=C(Br)[C@H](O)[C@@]2(C=C1Br)CC(C(=O)NCCCCCNC(=O)C1=NO[C@]3(C=C(Br)C(OC)(OC)[C@@H](Br)[C@@H]3O)C1)=NO2 | 7.1
COc1cccc2c1C(=O)c1c(O)c3c(c(O)c1C2=O)C[C@@](O)(C(=O)CO)C[C@@H]3O[C@H]1C[C@H](N)[C@H](O)[C@H](C)O1 | 0.1

# ---- query molecule ----
Record COC1=C(Br)[C@H](O)[C@@]2(C=C1Br)CC(C(=O)NCCCCNC(=O)C1=NO[C@]3(C=C(Br)C(=O)[C@H](Br)[C@@H]3O)C1)=NO2 , field GI50: 5.6

----------
GI50 by entry:
system: A549; test: Cytotoxicity against human A549 cells by SRB assay; format: functional
The reply should contain only the number, in nM.

O=C(NCCCCCNC(=O)C1=NO[C@]2(C=C(Br)C(=O)[C@@H](Br)[C@@H]2O)C1)C1=NO[C@]2(C=C(Br)C(=O)[C@@H](Br)[C@@H]2O)C1 | 2000

The record that follows has no GI50 shown yet.
Value of GI50 reported for the compound O=C(NCCCCCNC(=O)C1=NO[C@]2(C=C(Br)C(=O)[C@H](Br)[C@@H]2O)C1)C1=NO[C@]2(C=C(Br)C(=O)[C@H](Br)[C@@H]2O)C1 is 2400

----------
tested on: MDA-MB-231; experiment: Cytotoxicity against human MDA-MB-231 cells by SRB assay; format: functional
Reported log10 TGI values for a set of molecules
Recorded TGI (log10, µM)

Lab note: COC1=C(Br)[C@H](O)[C@@]2(C=C1Br)CC(C(=O)NCCCCNC(=O)C1=NO[C@]3(C=C(Br)C(=O)[C@@H](Br)[C@@H]3O)C1)=NO2 [APLYSINONE D] gave log10 TGI of 0.70

Record COC1=C(Br)[C@H](O)[C@@]2(C=C1Br)CC(C(=O)NCCCCCNC(=O)C1=NO[C@]3(C=C(Br)C(=O)[C@H](Br)[C@@H]3O)C1)=NO2 . Reported log10 TGI: 0.69

Input COC1=C(Br)[C@H](O)[C@@]2(C=C1Br)CC(C(=O)NCCCCCNC(=O)C1=NO[C@]3(C=C(Br)C(=O)[C@@H](Br)[C@@H]3O)C1)=NO2 [APLYSINONE A] . Output log10 TGI: 0.73

The molecule identified as COc1cccc2c1C(=O)c1c(O)c3c(c(O)c1C2=O)C[C@@](O)(C(=O)CO)C[C@@H]3O[C@H]1C[C@H](N)[C@H](O)[C@H](C)O1 [DOXORUBICIN] registered its log10 TGI at -0.52

Briefly, log10 TGI measured for COC1=C(Br)[C@H](O)[C@@]2(C=C1Br)CC(C(=O)NCCCCCNC(=O)C1=NO[C@]3(C=C(Br)C(OC)(OC)[C@@H](Br)[C@@H]3O)C1)=NO2 : 0.78

The measured log10 TGI associated with O=C(NCCCCCNC(=O)C1=NO[C@]2(C=C(Br)C(=O)[C@H](Br)[C@@H]2O)C1)C1=NO[C@]2(C=C(Br)C(=O)[C@H](Br)[C@@H]2O)C1 reads 0.38

Entry source: ChEMBL document CHEMBL1143705
